- system: ERBB4 (human)
- measurement-description: radiometric filter-binding kinase assay, Kinase HotSpot
- assay-context: compound 0.5 µM; ATP 10 µM
Binary label based on residual activity with cut-off 90%: below gives YES, not below gives NO.

Task: Given the entry Nc1ncnc2c1c(-c1ccc(Oc3ccccc3)cc1)cn2C1CCCC1 , would its reported residual activity be below 90%?
Result: YES

Task: Given the entry CCCC(=O)Oc1ccc2[nH]c(C(=O)c3cc4ccccc4[nH]3)cc2c1 , would its reported residual activity be below 90%?
Result: NO

Task: Given the entry CNC(=O)c1cc(Oc2ccc(NC(=O)Nc3ccc(Cl)c(C(F)(F)F)c3)cc2)ccn1 , would its reported residual activity be below 90%?
Result: NO

Task: Given the entry CC#CC(=O)Nc1cc2c(Nc3ccc(F)c(Cl)c3)ncnc2cn1 , would its reported residual activity be below 90%?
Result: YES

Task: Given the entry N#CC(C#N)=C(N)/C(C#N)=C/c1ccc(O)cc1 , would its reported residual activity be below 90%?
Result: NO

Data credit: the kinase profiling compilation of Christmann-Franck et al. (2016)
